Origin of values: patent US20210380675A1

Listed below: pKd values for each entry.
# Assayed System: T1, human IL-36α(R12), truncated (human, UniProt Q9UHA7 6-158)
# T1 construct: Untagged after removal of the His-SUMO tag; also called hIL-36alpha
# T1 chain: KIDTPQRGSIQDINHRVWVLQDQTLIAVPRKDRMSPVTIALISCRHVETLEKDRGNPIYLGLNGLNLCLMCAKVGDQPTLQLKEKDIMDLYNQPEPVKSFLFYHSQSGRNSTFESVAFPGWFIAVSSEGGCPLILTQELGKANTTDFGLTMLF
# Experiment Summary: SPR, Biacore T200, antibody on chip, IL-36 as analyte, 1:1 Langmuir fit
# Protocol: Antibodies were further tested for their binding to recombinant human or cynomolgus IL36α, IL-36γ in Biacore assays. In order to kinetically analyze the binding activity of the IL-36α and IL-36γ dual antagonist antibodies, the binding activity to human and cynomolgus IL-36α and IL-36γ was measured by surface plasmon resonance method (SPR). All of the following manipulations were carried out using a Biacore T200 (GE Healthcare Life Sciences, Pittsburgh, Pa.). […]
Reminder that pKd means the negative base-10 logarithm of the concentration expressed in mol/L.

The cases that follow already have their pKd on record.
144L249B (antibody, V domains shown, Mouse monoclonal from hybridoma; mouse IgG heavy and lambda light chain; also called mouse antibody 144L249B) VH: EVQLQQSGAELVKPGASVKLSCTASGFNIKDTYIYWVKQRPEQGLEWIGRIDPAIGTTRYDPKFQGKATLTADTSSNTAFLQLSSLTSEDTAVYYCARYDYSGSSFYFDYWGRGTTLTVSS VL: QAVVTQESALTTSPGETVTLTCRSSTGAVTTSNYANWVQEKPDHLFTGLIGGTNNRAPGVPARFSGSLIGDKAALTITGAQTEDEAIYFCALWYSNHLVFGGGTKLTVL	8.78
144L124B (antibody, V domains shown, Mouse monoclonal from hybridoma; mouse IgG heavy and lambda light chain; Same VH and VL as 144L180A) VH: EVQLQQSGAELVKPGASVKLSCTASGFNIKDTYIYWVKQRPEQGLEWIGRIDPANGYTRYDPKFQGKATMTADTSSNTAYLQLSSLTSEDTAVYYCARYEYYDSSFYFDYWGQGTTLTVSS VL: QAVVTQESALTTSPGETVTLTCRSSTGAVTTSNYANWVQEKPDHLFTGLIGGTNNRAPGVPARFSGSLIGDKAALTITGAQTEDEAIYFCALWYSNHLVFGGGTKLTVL	8.45

Query :: Consider the binder 144D666C (antibody, V domains shown, Mouse monoclonal from hybridoma; mouse IgG heavy and lambda light chain) VH: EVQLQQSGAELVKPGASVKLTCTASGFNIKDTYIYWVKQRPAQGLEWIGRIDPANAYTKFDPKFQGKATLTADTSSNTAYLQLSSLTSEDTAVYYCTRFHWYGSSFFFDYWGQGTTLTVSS VL: QAVVTQESALTTSPGETVTLTCRSSTGAVTTSNYANWVQEKPDHLFTGLIGGTDNRPPGVPARFSGSLIGDKAALTITGAQTEDEAIYFCALWYSNLWVFGGGTKLTVL and give its measured pKd.
Result :: 7.75

Query :: # get_value(readout='pKd', item= chimeric m/h 144D464A (antibody, human IgG1, lambda, V domains shown, Mouse VH/VL joined to human IgG1 constant and human Ig lambda (IGLC2) constant; also called chimeric mouse/human (m/h) 144D464A antibody) VH: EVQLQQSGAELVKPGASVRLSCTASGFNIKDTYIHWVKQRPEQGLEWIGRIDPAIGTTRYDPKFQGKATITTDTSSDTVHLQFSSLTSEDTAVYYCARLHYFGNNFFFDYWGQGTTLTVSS VL: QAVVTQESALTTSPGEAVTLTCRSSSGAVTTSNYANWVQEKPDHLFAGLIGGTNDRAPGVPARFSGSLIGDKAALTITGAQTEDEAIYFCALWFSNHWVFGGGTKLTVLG )
Result :: 8.66

Query :: Quick one: pKd of 144D464A (antibody, V domains shown, Mouse monoclonal from hybridoma; mouse IgG heavy and lambda light chain; also called mouse antibody 144D464A) VH: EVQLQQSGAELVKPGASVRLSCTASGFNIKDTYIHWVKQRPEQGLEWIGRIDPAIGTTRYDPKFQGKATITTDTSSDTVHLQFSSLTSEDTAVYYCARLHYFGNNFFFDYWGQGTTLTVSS VL: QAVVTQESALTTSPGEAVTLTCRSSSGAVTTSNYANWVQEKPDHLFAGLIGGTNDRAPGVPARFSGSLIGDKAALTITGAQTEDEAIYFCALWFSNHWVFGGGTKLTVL ?
Result :: 8.60

Query :: # input binder: m/h 144D666C (antibody, human IgG1, lambda, V domains shown, Mouse VH/VL joined to human IgG1 constant and human Ig lambda (IGLC2) constant; also called chimeric mouse/human 144D666C) VH: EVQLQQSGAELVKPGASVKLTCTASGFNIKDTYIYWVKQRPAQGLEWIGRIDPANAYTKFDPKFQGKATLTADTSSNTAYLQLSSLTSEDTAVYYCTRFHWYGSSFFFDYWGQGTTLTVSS VL: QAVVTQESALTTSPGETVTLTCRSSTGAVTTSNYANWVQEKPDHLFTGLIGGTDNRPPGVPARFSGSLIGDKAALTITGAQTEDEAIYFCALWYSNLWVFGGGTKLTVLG ; wanted: its pKd
Result :: 7.60
